Values were extracted from ChEMBL document CHEMBL4813982.

Experimental system: Tubulin (Homo sapiens) (UniProt P68371+Q9H4B7+P0DPH7+P68366+Q13509+Q71U36+P04350+Q3ZCM7+P07437+P68363+Q9BQE3+Q6PEY2+Q13885+Q9BVA1+Q9BUF5)
Assay summary: Inhibition of [3H]colchicine binding to tubulin (unknown origin) at 5 uM relative to control
Assay type: protein-complex assay
Entry flag: Criterion met if inhibition reaches 90%; Criterion not met if it does not.

Solved entries:
[[record]]
structure_smiles = "COc1ccc(N(C)c2nc(Cl)nc3cnn(C)c23)cc1F"
discrete_label = "Criterion met"

[[record]]
structure_smiles = "COc1ccc(N(C)c2nc(Cl)nc3cnn(C)c23)cc1"
discrete_label = "Criterion met"

[[record]]
structure_smiles = "CN(c1ccc(OC(F)(F)F)cc1)c1nc(Cl)nc2cnn(C)c12"
discrete_label = "Criterion not met"

[[record]]
structure_smiles = "COc1ccc(Nc2nc(Cl)nc3cnn(C)c23)cc1"
discrete_label = "Criterion not met"

[[record]]
structure_smiles = "COc1ccc2c(c1)CCCN2c1nc(Cl)nc2cnn(C)c12"
discrete_label = "Criterion met"

[[record]]
structure_smiles = "CCOc1ccc(N(C)c2nc(Cl)nc3cnn(C)c23)cc1"
discrete_label = "Criterion met"

[[record]]
structure_smiles = "COc1ccc(N(C)c2nc(C)nc3cc[nH]c23)cc1"
discrete_label = "Criterion not met"

[[record]]
structure_smiles = "COc1ccc2c(c1)CCCN2c1nc(C)nc2c(Cc3ccccc3)c[nH]c12"
discrete_label = "Criterion not met"

[[record]]
structure_smiles = "COc1ccc(N(C)c2nc(C)nc3ccn(C)c23)cc1"
discrete_label = "Criterion met"

[[record]]
structure_smiles = "COc1ccc(Nc2nc(C)nc3cc[nH]c23)cc1"
discrete_label = "Criterion not met"


Exercise: I'd appreciate it if you could say whether CSc1ccc(N(C)c2nc(Cl)nc3cnn(C)c23)cc1 has inhibition at least equal to 90%.
Solution: Criterion met

Exercise: I'd appreciate it if you could say whether CC(C)Oc1ccc(N(C)c2nc(Cl)nc3cnn(C)c23)cc1 has inhibition at least equal to 90%.
Solution: Criterion not met

====

Experimental system: Tubulin
Assay summary: Inhibition of tubulin assembly (unknown origin)
Quick list: pIC50 per entry.
Reminder that pIC50 is minus the log10 of a molar concentration.

Sample records with pIC50:
[[record]]
structure_smiles = "COc1ccc(N(C)c2nc(C)nc3c(Cc4ccccc4)c[nH]c23)cc1"
experimental_system = "Tubulin"
assay_result = 4.68

[[record]]
structure_smiles = "COc1ccc(N(C)c2nc(C)nc3cc[nH]c23)cc1"
experimental_system = "Tubulin"
assay_result = 5.00

[[record]]
structure_smiles = "COc1ccc(N(C)c2nc(C)nc3c(Cc4ccccc4)cn(C)c23)cc1"
experimental_system = "Tubulin"
assay_result = 6.32

[[record]]
structure_smiles = "CN(c1ccc(OC(F)(F)F)cc1)c1nc(Cl)nc2cnn(C)c12"
experimental_system = "Tubulin"
assay_result = 5.54

[[record]]
structure_smiles = "CCOc1ccc(N(C)c2nc(Cl)nc3cnn(C)c23)cc1"
experimental_system = "Tubulin"
assay_result = 6.38

[[record]]
structure_smiles = "COc1ccc2c(c1)CCCN2c1nc(Cl)nc2cnn(C)c12"
experimental_system = "Tubulin"
assay_result = 6.38

[[record]]
structure_smiles = "CC(C)Oc1ccc(N(C)c2nc(Cl)nc3cnn(C)c23)cc1"
experimental_system = "Tubulin"
assay_result = 5.96

[[record]]
structure_smiles = "COc1ccc(N(C)c2nc(Cl)nc3cnn(C)c23)cc1F"
experimental_system = "Tubulin"
assay_result = 6.13


Exercise: Report pIC50 for COc1ccc(N(C)c2nc(Cl)nc3cnn(C)c23)cc1 tested on Tubulin.
Solution: 6.35

Exercise: Report pIC50 for CSc1ccc(N(C)c2nc(Cl)nc3cnn(C)c23)cc1 tested on Tubulin.
Solution: 6.09
